# Tested on: 953936-095-R-J2-PDC spheroids with HUVEC/MSC, viability;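 further: spheroids exposed to compounds for seven days before read-out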
# ASSAY_DETAILS: Anticancer human tumor 953936-095-R-J2-PDC patient-derived cervical squamous cell carcinoma cell line growth inhibition [PI3K]
# CONDITION_SET: second compound 0.00316 µM; first compound 0.000316 µM; stronger effect = lower value
READOUT_NAME: viability, T/C (%)
Report only the number, with the unit % understood.

CC(=O)c1c(C)c2cnc(Nc3ccc(N4CCNCC4)cn3)nc2n(C2CCCC2)c1=O + CC(Nc1ccc2c(c1)OCCn1cc(N3C(=O)OCC3C(F)F)nc1-2)C(N)=O | 89.4
CC(=O)c1c(C)c2cnc(Nc3ccc(N4CCNCC4)cn3)nc2n(C2CCCC2)c1=O + COc1c(OCCCN2CCOCC2)ccc2c3n(c(=NC(=O)c4cnc(N)nc4)nc12)CCN3 | 87.4

Let's switch to this compound now.
Input line: Using the record for CC(C)n1nc(-c2ccc3oc(N)nc3c2)c2c(N)ncnc21 + COc1c(OCCCN2CCOCC2)ccc2c3n(c(=NC(=O)c4cnc(N)nc4)nc12)CCN3 , report its viability, T/C.
Output line: 79
